Exercise: state measured TGI for each of the compounds provided.
- System: HS 578T breast
- test-details: NCI tumour cell line growth inhibition, 48 h
Numbers only, in µM.

- compound: "O=[N+]([O-])c1cccc(-c2csc(NNC3=NC/C(=C/c4ccc5c(c4)OCO5)S3)n2)c1"
  target-desc: "HS 578T breast"
  result-unit: "µM"
  reported-value: 69.7
- compound: "CCC(=O)[C@H](C)[C@@H](OC(=O)[C@H](C)CC)[C@H](C)[C@H]1OC(CC)=C(C)C(=O)[C@@H]1C"
  target-desc: "HS 578T breast"
  result-unit: "µM"
  reported-value: 89.3
- compound: "O=c1c2cc([N+](=O)[O-])cnc2sn1-c1ccc([N+](=O)[O-])cc1"
  target-desc: "HS 578T breast"
  result-unit: "µM"
  reported-value: 90
- compound: "O=C(Nc1ccc(-n2ccc3c(NC(=O)c4ccccc4)nccc32)cc1)c1ccc(Cl)c(C(F)(F)F)c1"
  target-desc: "HS 578T breast"
  result-unit: "µM"
  reported-value: 20
- compound: "NS(=O)(=O)OC[C@@H]1C[C@@H](n2ccc3c(NC4CCc5ccccc54)ncnc32)C[C@@H]1O (some centres undefined)"
  target-desc: "HS 578T breast"
  result-unit: "µM"
  reported-value: 61.3

Give the reported TGI for OCc1cc2ccccc2c2c3c(ccc12)OCO3 (system: HS 578T breast).
144

###

- Tested on: HT29 colon
- test-details: NCI tumour cell line growth inhibition, 48 h; in the data active means GI50 below about 0.43 µM; inactive means the rest
Could you please pick one outcome from this set? active, inactive

Recorded test call requested for CCN1/C(=C\c2cc[n+](CC)c3ccccc23)C=Cc2ccccc21
active

What call does the record list for Cc1cc(-c2nc(C(=O)Nc3cc4oc(N5CCOCC5)nc4nc3N3CC[C@@H](O)C3)co2)ccn1 ?
inactive

Please state the recorded outcome for this compound: COc1cc2c(c(OC)c1OC)-c1ccc(NNC(N)=S)c(=O)cc1[C@@H](NC(C)=O)CC2
active

Record lookup: outcome of this test for FC(F)(F)c1cccc(Nc2nc(-c3ccccc3)nc3ncccc23)c1 ?
inactive

// return assay outcome for CCC(=O)[C@H](C)[C@@H](OC(=O)[C@H](C)CC)[C@H](C)[C@H]1OC(CC)=C(C)C(=O)[C@@H]1C
inactive

###

- System: NCI-H23 lung
- test-details: NCI tumour cell line growth inhibition, 48 h
So I've got a bunch of compounds here, and I need their TGI values.

Below, each entry is followed by its recorded TGI result.
- compound: "CCOC(=O)C(C)(C)Oc1ccc2c(-c3ccccc3)cc(=O)oc2c1"
  reported-value: "> 100 µM"
- compound: "Nc1nc(-n2c(-c3ccccc3)nc3c(Br)cc(Br)cc3c2=O)nnc1-c1cccc(Cl)c1Cl"
  reported-value: "53.1 µM"
- compound: "NC1=NCCC1(c1ccccc1)c1ccccn1 (stereo not given)"
  reported-value: "> 100 µM"
- compound: "O=C(Nc1ccc(-n2ccc3c(NC(=O)c4ccccc4)nccc32)cc1)c1ccc(Cl)c(C(F)(F)F)c1"
  reported-value: "> 32.9 µM"
- compound: "C=CCN1C[C@H](C)N([C@H](c2ccc(C(=O)NC(CC)CC)cc2)c2cccc(OC)c2)C[C@H]1C"
  reported-value: "> 100 µM"

# batch: return TGI for each of the 2 compounds below
1. COC(=O)/C=C1\S/C(=N\NC(=O)c2cc3ccc2/C=C\c2ccc(cc2)/C=C\3)N(c2ccccc2)C1=O
2. CC(=O)OC1CC(OC2C(O)CC(OC3C(O)CC(OC4CCC5(C)C(CCC6C5CC(O)C5(C)C(C7=CC(=O)OC7)CCC65O)C4)OC3C)OC2C)OC(C)C1OC1OC(CO)C(O)C(O)C1O (stereo not given)

1. 4.15 µM
2. 0.0744 µM

Reference for the values: PubChem BioAssay (NCI)
